Assay: Pharmacokinetics in mice (plasma and brain levels, LC-MS)
Type: in vivo
Settings: male, C57BL/6J, ip; mouse, I.P. 2.5 mg/kg, plasma
Experimental: To prepare for in vivo studies, we investigated the pharmacokinetic properties of compound 6. […] For comparison, we determined the plasma and brain loxapine levels. […] The compound levels in the plasma and brain samples were determined using liquid chromatography–tandem mass spectrometry (LC‐MS/MS) by a staff member from Bienta. […] Data below the lower limit of quantitation were presented as missing data to improve the validity of the half‐life calculations. […]
Measurement type: AUC(0-inf) (ng·h/mL)
// return numeric value only (unit: ng·h/mL, not printed)

### Prompt Fill in reported AUC(0-inf) for this entry: CN1CCN(C2=Nc3ccccc3Oc3ccc(Cl)cc32)CC1 [Loxapine, reference compound]
### Response 178

These measurements were taken from paper PMC11022729.
